# Test system: Klebesiella pneumonia
# assay.remarks: Growth testing against ESKAPE pathogens: Klebesiella pneumonia
# Assay type: cell-based, Klebsiella pneumoniae
# Parameters: key: Growth; X: No Growth
# condition.set: 5 μg/ml
reported.endpoint: Activity against Klebesiella pneumonia (growth observed)

- compound: "CCC(C)SN1C(=O)C(OC(=O)c2cn(C3CC3)c3cc(N4CCN(C(C)=O)CC4)c(F)cc3c2=O)C1c1ccccc1Cl (stereo not drawn)"
  observed: "G"
- compound: "CCCCCCC(=O)N1CCN(c2cc3c(cc2F)c(=O)c(C(=O)OC2C(=O)N(SC(C)CC)C2c2ccccc2Cl)cn3C2CC2)CC1 (stereo not drawn)"
  observed: "G"
- compound: "CCCCCC(=O)N1CCN(c2cc3c(cc2F)c(=O)c(C(=O)OC2C(=O)N(SC)C2c2ccccc2)cn3C2CC2)CC1 (stereo not drawn)"
  observed: "G"

Provenance of the data: patent US10010545B1
